These entries and their values trace back to patent US9969775B2.

Biological target: hCGRP receptor (CALCRL:RAMP1) (Homo sapiens, UniProt O60894+Q16602)
Construct: host or cells: GeneBLAzer CALCRL:RAMP1-CRE-bla Freestyle 293F
Sequence (Q16602 23-461): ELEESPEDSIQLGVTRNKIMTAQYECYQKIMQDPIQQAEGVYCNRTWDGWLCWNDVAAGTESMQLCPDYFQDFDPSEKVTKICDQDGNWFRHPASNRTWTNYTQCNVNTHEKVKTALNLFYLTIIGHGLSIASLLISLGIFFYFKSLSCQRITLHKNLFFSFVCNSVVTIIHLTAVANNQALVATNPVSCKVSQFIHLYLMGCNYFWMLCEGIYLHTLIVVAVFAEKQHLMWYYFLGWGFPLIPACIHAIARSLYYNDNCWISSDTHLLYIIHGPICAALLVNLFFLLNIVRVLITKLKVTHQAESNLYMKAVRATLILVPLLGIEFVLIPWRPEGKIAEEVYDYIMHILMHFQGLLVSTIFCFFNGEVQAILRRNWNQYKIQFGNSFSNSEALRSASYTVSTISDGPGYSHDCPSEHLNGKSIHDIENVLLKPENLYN
Sequence (O60894 27-148): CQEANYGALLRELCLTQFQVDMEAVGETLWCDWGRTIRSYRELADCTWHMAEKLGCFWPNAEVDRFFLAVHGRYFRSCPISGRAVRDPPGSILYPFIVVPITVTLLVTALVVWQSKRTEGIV
Assay: CGRP receptor antagonist activity measured by cAMP assay (HTRF)
Type: cell-based
Conditions: % MPE: percent of the maximal possible effect; agonist human α-CGRP; read-out: hCGRP-R Efficacy Antag (%) Ave
Bridge positions count the residues as written; N and C are the ends. Square brackets hold non-standard residues; d marks the D form. Peptide text beside a SMILES is read from it. * marks the point of attachment. Phe(2-CONH2) = NC(=O)c1ccccc1C[C@H](N)C(=O)O; Imidazole4carbonyl = O=C(c1cnc[nH]1)*; Orn(iPr) = CC(C)NCCC[C@H](N)C(=O)O; Oxazole2carbonyl = O=C(c1ncco1)*; 3Pal = N[C@@H](Cc1cccnc1)C(=O)O; X9 = Nc1cccnc1C(=O)*
parameter_measured: Emax (%)

1. CC(C)[C@@H]1NC(=O)[C@H](CC(=O)O)NC(=O)[C@H](CCCNC(=N)N)NC(=O)[C@@H](NC(=O)[C@H](Cc2ccc(O)cc2)NC(=O)[C@H](NC(=O)c2cnc[nH]2)C(C)C)CSSC[C@@H](C(=O)N[C@@H](Cc2cccnc2)C(N)=O)NC(=O)[C@H](Cc2ccccc2)NC(=O)[C@@H]2CCCN2C(=O)CNC1=O [Compound 37] (Imidazole4carbonyl-[dV]YCRDVGPFC[3Pal]-NH2; disulfide 3-10) :: 100
2. CC(C)NCCC[C@@H]1NC(=O)[C@@H](NC(=O)[C@H](Cc2ccccc2C(N)=O)NC(=O)[C@H](NC(=O)c2ncco2)C(C)C)CSSC[C@@H](C(=O)N[C@@H](Cc2cccnc2)C(N)=O)NC(=O)[C@H](Cc2ccccc2)NC(=O)[C@@H]2CCCN2C(=O)CNC(=O)[C@H](C(C)C)NC(=O)[C@H](CC(=O)O)NC1=O [Compound 30] (Oxazole2carbonyl-[dV][Phe(2-CONH2)]C[Orn(iPr)]DVGPFC[3Pal]-NH2; disulfide 3-10) :: 100
3. CC(C)[C@@H]1NC(=O)[C@H](CC(=O)O)NC(=O)[C@H](CCCNC(=N)N)NC(=O)[C@@H](NC(=O)[C@H](Cc2ccc(O)cc2)NC(=O)[C@H](NC(=O)c2ncccc2N)C(C)C)CSSC[C@@H](C(=O)N[C@@H](Cc2cccnc2)C(N)=O)NC(=O)[C@H](Cc2ccccc2)NC(=O)[C@@H]2CCCN2C(=O)CNC1=O [Compound 36] (X9-[dV]YCRDVGPFC[3Pal]-NH2; disulfide 3-10) :: 100

* * *

Readings of pIC50 for the listed compounds
Target: hCGRP receptor (CALCRL:RAMP1) (Homo sapiens, UniProt O60894+Q16602)
Construct: host or cells: GeneBLAzer CALCRL:RAMP1-CRE-bla Freestyle 293F
Assay: CGRP receptor antagonist activity measured by cAMP assay (HTRF)
Assay type: cell-based
Settings: GeneBLAzer CALCRL:RAMP1-CRE-bla Freestyle 293F cells; agonist human α-CGRP; 30 minutes; read-out: hCGRP-R IC50 Ave
pIC50: −log10 of the molar value. Numbered stars: 1 amine (or outer) side, 2 acyl side, 3 side chain; on linkers, the order of the positions; unused ones are H or OH. Bridge positions count the residues as written; N and C are the ends. Square brackets hold non-standard residues; d marks the D form. Peptide text beside a SMILES is read from it. * marks the point of attachment. Phe(3-CH2NH2) = O=C([C@H](Cc1cccc(CN[*:3])c1)N[*:1])[*:2]; Phe(2-CONH2) = NC(=O)c1ccccc1C[C@H](N)C(=O)O; Orn(iPr) = CC(C)NCCC[C@H](N)C(=O)O; Oxazole2carbonyl = O=C(c1ncco1)*; 3Pal = N[C@@H](Cc1cccnc1)C(=O)O; ΔPro = O=C(O)[C@@H]1C=CCN1; X1 = O=C(c1ncccc1F)*
parameter_measured: pIC50

1) CC(C)[C@@H]1NC(=O)[C@H](CC(=O)O)NC(=O)[C@H](CCCNC(=N)N)NC(=O)[C@@H](NC(=O)[C@H](Cc2ccc(O)cc2)NC(=O)[C@H](NC(=O)c2ncco2)C(C)C)CSSC[C@@H](C(=O)N[C@@H](Cc2cccnc2)C(N)=O)NC(=O)[C@H](Cc2cccnc2)NC(=O)[C@@H]2CCCN2C(=O)CNC1=O [Compound 11] (Oxazole2carbonyl-[dV]YCRDVGP[3Pal]C[3Pal]-NH2; disulfide 3-10) :: 9.89
2) CC(C)[C@@H]1NC(=O)[C@H](CC(=O)O)NC(=O)[C@H](CCCNC(=N)N)NC(=O)[C@@H](NC(=O)[C@H](Cc2ccc(O)cc2)NC(=O)[C@H](NC(=O)c2ncccc2F)C(C)C)CSSC[C@@H](C(=O)N[C@@H](Cc2cccnc2)C(N)=O)NC(=O)[C@H](Cc2ccccc2)NC(=O)[C@@H]2CCCN2C(=O)CNC1=O [Compound 17] (X1-[dV]YCRDVGPFC[3Pal]-NH2; disulfide 3-10) :: 10.30
3) CC(C)NCCC[C@@H]1NC(=O)[C@@H](NC(=O)[C@H](Cc2ccccc2C(N)=O)NC(=O)[C@H](NC(=O)c2ncco2)C(C)C)CSSC[C@@H](C(=O)N[C@@H](Cc2cccnc2)C(N)=O)NC(=O)[C@H](Cc2cccc(CN)c2)NC(=O)[C@@H]2C=CCN2C(=O)CNC(=O)[C@H](C(C)C)NC(=O)[C@H](CC(=O)O)NC1=O [Compound 43] (Oxazole2carbonyl-[dV][Phe(2-CONH2)]C[Orn(iPr)]DVG[ΔPro][Phe(3-CH2NH2)]C[3Pal]-NH2; disulfide 3-10) :: 10.40
